Hi there, I'd appreciate the recorded max response for every entry that follows.
assay: Cycloheximide Counterscreen for Small Molecule Inhibitors of Shiga Toxin; settings: cell reporter, cycloheximide protein synthesis inhibition counterscreen; active compounds read high; further: read at 38.3 µM for the half of the compounds with a filed dose; 0% is about no effect
Out of some 300,000 compounds screened, about 37,000 (12%) were called active. Many of the other results were omitted from the sample, so actives are more common in it than they were.
Number in %, nothing else.

Identify measured max response corresponding to CCSc1nnc(-c2cc3c(s2)-c2ccccc2CC3)o1
40.7

Identify measured max response corresponding to Fc1ccc(CSc2nnc(-c3cc4c(s3)-c3ccccc3CC4)o2)cc1
1.49

Identify measured max response corresponding to C=CCSc1nc2c(c(=O)[nH]c(=O)n2C)n1Cc1ccccc1
-3.59

Identify measured max response corresponding to Cc1cccc(N2CCN(C(=O)/C=C/c3ccco3)CC2)c1C
15.1

Identify measured max response corresponding to Cc1cc(O)c(NC(=O)c2ccc(C)c([N+](=O)[O-])c2)cc1C
40.4

Identify measured max response corresponding to CCC(=O)c1cn(CCOc2ccccc2OC)c2ccccc12
3.68

====

experiment: Cycloheximide Counterscreen for Small Molecule Inhibitors of Shiga Toxin; details: cell reporter, cycloheximide protein synthesis inhibition counterscreen; active compounds read high; further: read at 38.3 µM for the half of the compounds with a filed dose; 0% is about no effect
The whole screen tested about 300,000 compounds, of which about 37,000 (12%) were called active. This excerpt belongs to a sample that is enriched for actives.
reported property: max response (%)
Number in %, nothing else.

Identify measured max response corresponding to Nc1nc(SC23CC4CC(CC(C4)C2)C3)ns1
-2.92

Identify measured max response corresponding to C=CCNC(=O)c1sc(SC)cc1-c1ccc(Cl)cc1
-0.634

Identify measured max response corresponding to Nc1ccc2nn(-c3ccc(Cl)cc3)nc2c1
39.4

Identify measured max response corresponding to CN(CC(=O)Nc1ccc(Cl)cc1)C(=O)CNC(=O)c1ccc2ccccc2c1
24.6

Identify measured max response corresponding to Cc1ccc(Cn2ccc(NC(=O)C3C4CCC(C4)C3C(=O)O)n2)cc1 (stereo unspecified)
1.94

Identify measured max response corresponding to O=C(NCCCN1CCN(c2ccc(F)cc2)CC1)Nc1ccc([N+](=O)[O-])cc1
5.85

Identify measured max response corresponding to COC(=O)c1ccc(CSc2ccc3nnc(-c4ccccc4)n3n2)o1
15.3

Identify measured max response corresponding to CCc1cc(C(=O)c2ccc(OC)cc2)c(NC(=O)CN2CCN(C)CC2)s1
-1.85

Identify measured max response corresponding to C/C(=N\Nc1ccc([N+](=O)[O-])cc1)c1ccc(-n2nncc2C(C)(C)C)cc1
-3.73

Identify measured max response corresponding to Cc1cc(C(=O)Nc2c(C)nn(Cc3ccccc3)c2C)on1
-4.11

Identify measured max response corresponding to CCc1cc(C(c2ccccc2OC)N2CCOCC2)c(NC(=O)c2ccccc2)s1 (stereo unspecified)
12.9

====

assay: Cycloheximide Counterscreen for Small Molecule Inhibitors of Shiga Toxin; settings: cell reporter, cycloheximide protein synthesis inhibition counterscreen; further: read at 38.3 µM for the half of the compounds with a filed dose; 0% is about no effect
The whole screen tested about 300,000 compounds, of which about 37,000 (12%) were called active. Cut-off read from the data, not from the text of the source: active = max response mostly above about 13% (no sharp cut-off); inactive = mostly below about 14%. Many of the other results were omitted from the sample, so actives are more common in it than they were.
Choose one outcome from this list and give only that: active, inactive

Outcome? CCCCn1c(=S)[nH]c2cc(S(=O)(=O)N3CCCCC3)ccc21
inactive

Outcome? COCCCNC(=O)C1CC(=O)N(CCc2ccc(F)cc2)C1 (stereo not drawn)
inactive

Outcome? Cc1csc(SCC(=O)Nc2sccc2C#N)n1
inactive

Outcome? CC(C)CC(O)C1CCN(C(=O)CCc2nnc(-c3ccc4c(c3)OCO4)o2)CC1 (stereo not drawn)
inactive

Outcome? COC(=O)C1(C)NC(c2ccc(F)cc2)C2C(=O)N(c3ccccc3)C(=O)C21 (stereo not drawn)
inactive

Outcome? CCOc1cc(NC(=O)CCl)c(OCC)cc1NC(C)=O
inactive

Outcome? COc1ccc2[nH]c(C(=O)N/N=C/c3cc(OC)c(OC)c(OC)c3)cc2c1
inactive

Outcome? O=C(NCc1csc(-c2cccs2)n1)C1CC1
active

Outcome? COc1ccc(C)cc1NC(=O)CSc1nc(SC)ns1
inactive

Outcome? O=C(NCc1cccs1)C1CCN(S(=O)(=O)c2ccc(Cl)cc2)CC1
inactive

Outcome? COc1ccc2c(c1)CCC/C2=N\OC(=O)c1ccccc1F
inactive

Outcome? Cn1c(=O)c(=O)n(C)c2cc(S(=O)(=O)CCC(=O)N3CCCCC3)ccc21
inactive

Outcome? CCc1ccc(OC(C)C(=O)Nc2ccc(S(=O)(=O)Nc3cc(C)on3)cc2)cc1 (stereo not drawn)
inactive

Outcome? Cc1cccc(CCNC(=O)Cn2ncc3c([nH]c4ccc(C)cc43)c2=O)c1
inactive

Outcome? COc1ccc(Oc2cn[nH]c2-c2ccc(OC)cc2O)cc1
inactive

Outcome? CCn1nc(C)c(CN2CCN(Cc3ccc(OC)c(C)c3C)C(CCO)C2)c1C (stereo not drawn)
inactive

Outcome? C/C=C/c1ccc(OCC(O)CN2CCCCCCC2)c(OC)c1 (stereo not drawn)
inactive

Outcome? O=C(OCC(O)C(O)COC(=O)c1ccccc1)c1ccccc1 (stereo not drawn)
inactive

Outcome? CCOC(=O)c1cc2cc3ccccc3cc2oc1=O
active

Outcome? COC(=O)Cc1csc(/N=C/c2c(O)n(-c3cccc(C(F)(F)F)c3)c(=O)c3ccccc23)n1
inactive

Outcome? COc1ccc(NC(=O)c2sc(N3CCOCC3)nc2-c2ccccc2)c(OC)c1
inactive

Outcome? Cc1cccc(N2CCN(S(=O)(=O)c3ccc(-c4cc(C)no4)s3)CC2C)c1 (stereo not drawn)
inactive

Outcome? O=C(c1cccs1)C1C(c2ccc(Br)cc2)NC(=S)NC1(O)C(F)(F)F (stereo not drawn)
active

Outcome? CCCOC(=O)c1cc2ccccc2oc1=O
inactive

Outcome? CC(C)(C)C1CCC(C(=O)NCC(c2cccs2)N2CCOCC2)CC1 (stereo not drawn)
inactive

Outcome? CC1CCCCN1CCCNC(=O)Cn1ncc2c([nH]c3ccccc32)c1=O (stereo not drawn)
inactive

Outcome? CCOC(=O)c1c(NC(=O)CSc2nccc(=O)[nH]2)sc(C)c1C
inactive

Outcome? COC(=O)[C@]1(S(=O)(=O)c2ccccc2)C[C@@H]2ON=C(c3ccc(OC)cc3)[C@@H]2C1
inactive

Outcome? CCc1nnc(NC(=O)C2CC(=O)N(c3ccc4c(c3)OCCO4)C2)s1 (stereo not drawn)
inactive

Outcome? COc1ccc2[nH]c(C(=O)Nc3ccccc3Cl)cc2c1
active

Outcome? COc1ccc(NC(=O)COC(=O)c2ccncc2)c(OC)c1
inactive

Outcome? CC(=O)Nc1ccc(/C=N/Nc2ccc(C(=O)c3c(C)cc4ccccn34)cc2[N+](=O)[O-])cc1
inactive

Outcome? CCOC(=O)C1CCN(C(=O)CN2C(=O)c3cccnc3Oc3ccc(C)cc32)CC1
inactive

Outcome? Cc1cccc2nc(CSc3nc4[nH]ncc4c(=O)n3-c3cccc(Cl)c3)cc(=O)n12
inactive

Outcome? Cc1ccc(-c2cc(C(=O)NCc3cn(C)nc3C)c3cc(Br)ccc3n2)cc1
active

Outcome? O=C(CCn1nnnc1CN1CCOCC1)N1CCC(c2ccccc2Cl)C1 (stereo not drawn)
inactive

Outcome? Cc1cc2c(cc1C)N(Cc1ccccc1)C1=NCCCN12
inactive

Outcome? COc1cccc(NC(=O)CN2CCN(CC(=O)Nc3ccccc3Cl)CC2)c1
inactive

Outcome? CCCN1C2=C(C(=O)CCC2)C(c2ccc(O)c(Br)c2)C2=C1CCCC2=O
inactive

Outcome? CCOc1ccc(CN2CCC(n3nccc3NC(=O)C3CC3)CC2)cc1CO
inactive

Outcome? Cc1cccc([C@@H]2[C@@H]3C(=O)N(C)C(=O)[C@@H]3[C@@H]3C(=O)Nc4ccccc4C(=O)N23)c1
inactive

Outcome? CCN(CC)C(=O)COc1coc(CN2CCN(Cc3ccccc3)CC2)cc1=O
inactive

Outcome? O=C(COC(=O)c1ccncc1)c1ccccc1
active

====

experiment: Cycloheximide Counterscreen for Small Molecule Inhibitors of Shiga Toxin; conditions: cell reporter, cycloheximide protein synthesis inhibition counterscreen; further: read at 38.3 µM for the half of the compounds with a filed dose; 0% is about no effect
Among all 300,000 compounds or so, about 37,000 (12%) were called active. No stated cut-off is given here; in the data, active means max response mostly above about 13% (no sharp cut-off); inactive means mostly below about 14%. The sample as a whole holds a higher share of actives than the screen did.
Choose one outcome from this list and give only that: YES (active), NO (inactive)

Outcome? Cc1ccccc1C(=O)Nc1ccccc1NC(=O)c1ccccc1C
NO

Outcome? COC(=O)/C(=C\Nc1ccccc1)NC(=O)c1ccc(Cl)cc1Cl
NO

Outcome? CCC1Sc2ccc(S(=O)(=O)CCC(=O)NCc3cccs3)cc2NC1=O (stereo unspecified)
NO

Outcome? Cc1nn(-c2ccccc2)c2c1c(C)c(CCC(=O)NCC1CCCO1)c(=O)n2C (stereo unspecified)
NO

Outcome? COc1ccc(CNC(=O)C(Cc2ccccc2)n2cccc2)cc1 (stereo unspecified)
NO

Outcome? Cc1nn(-c2ccccc2)c(C)c1/C=C/C(=O)OC(C)C(N)=O (stereo unspecified)
YES

Outcome? Cc1ccccc1C(=O)Nc1ccccc1Sc1ccccc1
NO

Outcome? Cc1nn(-c2ccccc2)c(C)c1NC(=O)CCl
NO

Outcome? C/C(CC(=O)NCc1ccc(Cl)cc1)=N\NC(=O)COc1ccc(C)cc1Br
NO

Outcome? CCOc1cc(C(C(=O)NCC2CCCO2)N(C(=O)Cn2nnc3ccccc32)c2cccc(OC)c2)ccc1O (stereo unspecified)
NO

Outcome? Cc1cc(/C=N/NC(=O)CC2(C)OCCO2)c(C)n1-c1ccc(Cl)c(Cl)c1
NO

Source listed as PubChem BioAssay AID2314.
